Measured IC50 by item
# Target Under Test: Itk (Homo sapiens)
# Construct: Kinases are expressed as either kinase domains or full length constructs; made in house
# Sequence (Q08881 whole entry, species assumed, the tested form may be a part): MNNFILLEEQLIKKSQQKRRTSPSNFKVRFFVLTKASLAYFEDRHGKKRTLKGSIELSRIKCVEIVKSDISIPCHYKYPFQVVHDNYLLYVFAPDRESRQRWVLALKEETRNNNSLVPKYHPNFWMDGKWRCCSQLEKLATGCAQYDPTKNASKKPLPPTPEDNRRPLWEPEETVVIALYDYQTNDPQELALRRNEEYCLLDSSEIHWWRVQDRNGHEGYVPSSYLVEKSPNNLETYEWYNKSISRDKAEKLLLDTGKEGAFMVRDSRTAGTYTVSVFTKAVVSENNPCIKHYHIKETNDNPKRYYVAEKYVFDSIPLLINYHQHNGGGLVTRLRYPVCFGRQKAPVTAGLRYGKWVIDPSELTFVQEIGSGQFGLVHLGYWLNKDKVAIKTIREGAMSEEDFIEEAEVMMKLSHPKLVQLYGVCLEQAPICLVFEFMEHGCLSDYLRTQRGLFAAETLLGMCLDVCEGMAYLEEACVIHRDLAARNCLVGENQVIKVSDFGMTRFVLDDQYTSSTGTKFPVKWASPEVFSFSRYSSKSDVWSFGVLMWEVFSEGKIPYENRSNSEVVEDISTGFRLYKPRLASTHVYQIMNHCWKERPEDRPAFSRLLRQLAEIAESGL
# Method: Kinase inhibition assay (33P transfer), Itk
# Format: biochemical
# Condition Summary: read-out: Itk-1

These recorded examples may help you get a feel for the data.
• CN(c1cccc(Cl)c1)c1ncnc(Cl)n1 [Compound 701] = > 17.6 µM
• CC(C)(C)c1cc(Nc2ncnc(Nc3ccc(C(N)=O)cc3)n2)[nH]n1 [Compound 502] = 1.14 to 6.81 µM
• CC(C)(C)c1cc(Nc2ncnc(Cl)n2)[nH]n1 [Compound 975] = > 17.8 µM
• CN(c1cccc(Cl)c1)c1ncnc(Nc2ccc(C(F)(F)F)cc2)n1 [Compound 744] = > 11.8 µM

Lab note: measured IC50 of COc1cc(Nc2ncnc(Nc3ccc(Cl)c4ccccc34)n2)cc(OC)c1OC [Compound 1031] was > 10.3 µM

Value source: patent US7074789B2
